System: Arabidopsis thaliana seedlings
Experiment: Primary root elongation of Arabidopsis thaliana seedlings (IC50-root)
Assay type: in vivo
Settings: continuous exposure of seedlings, unpublished data, read-out: IC50-root (dose required to reduce primary root elongation by 50%)
recordedMetric: pIC50
Scale: negative log10 of molar concentration, which is what pIC50 denotes.

Lookup result for `O=C(O)c1ccc2c(c1)OCO2` ; measured pIC50: 4.40
